Where these numbers come from: patent US20080119412A1

Molecular target: INADL d3 (Homo sapiens, UniProt Q8NI35)
Construct: made in house; host or cells: E. coli (DH5alpha, BL21 or JM109)
Sequence (Q8NI35 with tags, fused parts or gaps): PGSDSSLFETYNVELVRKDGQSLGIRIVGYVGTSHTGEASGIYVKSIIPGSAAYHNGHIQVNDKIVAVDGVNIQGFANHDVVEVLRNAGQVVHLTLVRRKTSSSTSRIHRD
Assay: G assay, peptide binding to GST-PDZ fusion (Table 11)
Conditions: Table 11, titrations or binding assays
No end group written: not given here. *: point of attachment. Biotin = O=C1N[C@H]2[C@H](CS[C@H]2CCCCC(=O)*)N1
property: PDZ domain bound

| seq_text | recorded_measurement |
| --- | --- |
| QDFRRAFRRILARPWTQTAW | INADL D3 |
| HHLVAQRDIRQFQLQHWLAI | INADL D3 |
| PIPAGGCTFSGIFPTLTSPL | INADL D3 |
| SLIGPVQKEYQRELGKLSSP | INADL D3 |
| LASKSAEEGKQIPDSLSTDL | INADL D3 |
| GRWTGRAMSAWKPTRRETEV (Biotin-GRWTGRAMSAWKPTRRETEV) | INADL D3 |
